System: Kidney
Experiment: Antioxidant activity in Sprague-Dawley rat kidney assessed as inhibition of malonaldehyde
Type: functional, tissue-based
Binary call on IC50 with cut-off 8 µM: strictly below means Criterion met, and equality or higher means Criterion not met.

| molecule | classification |
| --- | --- |
| COc1cc([C@@H]2c3cc4c(cc3[C@@H](NC(=O)[C@H](Cc3ccccc3)NC(=O)OC3CC(C)(C)N([O])C(C)(C)C3)[C@H]3COC(=O)[C@H]23)OCO4)cc(OC)c1O | Criterion not met |
| COc1cc([C@@H]2c3cc4c(cc3[C@@H](O[C@@H]3O[C@@H]5CO[C@@H](C)O[C@H]5[C@H](O)[C@H]3O)[C@H]3COC(=O)[C@H]23)OCO4)cc(OC)c1O [ETOPOSIDE] | Criterion not met |
| COc1cc([C@@H]2c3cc4c(cc3[C@@H](NC(=O)[C@H](CCSC)NC(=O)OC3CC(C)(C)N([O])C(C)(C)C3)[C@H]3COC(=O)[C@H]23)OCO4)cc(OC)c1O | Criterion met |
| COc1cc([C@@H]2c3cc4c(cc3[C@@H](NC(=O)[C@H](C)NC(=O)OC3CC(C)(C)N([O])C(C)(C)C3)[C@H]3COC(=O)[C@H]23)OCO4)cc(OC)c1O | Criterion met |
| COc1cc([C@@H]2c3cc4c(cc3[C@@H](NC(=O)CNC(=O)OC3CC(C)(C)N([O])C(C)(C)C3)[C@H]3COC(=O)[C@H]23)OCO4)cc(OC)c1O | Criterion not met |

Task: Strictly below 8 µM in IC50? `COc1cc([C@@H]2c3cc4c(cc3[C@@H](NC(=O)[C@@H](NC(=O)OC3CC(C)(C)N([O])C(C)(C)C3)C(C)C)[C@H]3COC(=O)[C@H]23)OCO4)cc(OC)c1O`
Output: Criterion not met

Task: Strictly below 8 µM in IC50? `COc1cc([C@@H]2c3cc4c(cc3[C@@H](NC(=O)[C@H](CC(C)C)NC(=O)OC3CC(C)(C)N([O])C(C)(C)C3)[C@H]3COC(=O)[C@H]23)OCO4)cc(OC)c1O`
Output: Criterion not met

Task: Strictly below 8 µM in IC50? COc1cc([C@@H]2c3cc4c(cc3[C@@H](NC(=O)[C@@H](NC(=O)OC3CC(C)(C)N([O])C(C)(C)C3)C(C)O)[C@H]3COC(=O)[C@H]23)OCO4)cc(OC)c1O (stereo partly drawn)
Output: Criterion met
